Ki values for Alpha-1D adrenergic receptor (Homo sapiens), compiled from several publications.
quantity_measured: Ki (nM)

Use these answered entries as a reference point.
Give Alpha-1D adrenergic receptor (Homo sapiens) Ki for COc1ccccc1N1CCN(Cc2ccc(CN3CCCCCC3=O)s2)CC1 13

// next record COC(=O)C1=C(C)NC(=O)N(C(=O)NCCCN2CCC(c3ccc(C)cc3)(c3ccccc3C)CC2)C1c1ccc(F)c(F)c1 (stereo not drawn) 250

Item: c1ccc(OCCNCC2COC(c3ccccc3)(c3ccccc3)OC2)cc1 178

(a) CNc1ccc2c(c1)C(NCCOc1cc(F)ccc1F)CCS2(=O)=O (stereo not drawn)
(b) O=C1CC2(CCCC2)CC(=O)N1CCN1CCN(c2ccccc2C2CC2)CC1
(c) CO/C(O)=C1\C(C)=NC(C)=C(C(=O)NCCCN2CCC(c3ccccc3)(c3ccccc3)CC2)C1c1ccc(OC(C)C)cc1 (stereo not drawn)
Ordering: ascending Ki. // respond by listing labels in the order requested a, b, c

(a) CC(C)Oc1ccccc1N1CCN(Cc2cc(CN3CCCCC3=O)no2)CC1
(b) c1ccc(OCCNC[C@@H]2CO[C@H](C(c3ccccc3)c3ccccc3)O2)cc1 (relative stereo)
Lab log: flag the item ( a or b ) with the smaller Ki figure. Give the label of your selection. b
(b: 29.5 nM, a: 1440 nM)

###

- system_name: UniProt:P25100
- Sequence (P25100 whole entry): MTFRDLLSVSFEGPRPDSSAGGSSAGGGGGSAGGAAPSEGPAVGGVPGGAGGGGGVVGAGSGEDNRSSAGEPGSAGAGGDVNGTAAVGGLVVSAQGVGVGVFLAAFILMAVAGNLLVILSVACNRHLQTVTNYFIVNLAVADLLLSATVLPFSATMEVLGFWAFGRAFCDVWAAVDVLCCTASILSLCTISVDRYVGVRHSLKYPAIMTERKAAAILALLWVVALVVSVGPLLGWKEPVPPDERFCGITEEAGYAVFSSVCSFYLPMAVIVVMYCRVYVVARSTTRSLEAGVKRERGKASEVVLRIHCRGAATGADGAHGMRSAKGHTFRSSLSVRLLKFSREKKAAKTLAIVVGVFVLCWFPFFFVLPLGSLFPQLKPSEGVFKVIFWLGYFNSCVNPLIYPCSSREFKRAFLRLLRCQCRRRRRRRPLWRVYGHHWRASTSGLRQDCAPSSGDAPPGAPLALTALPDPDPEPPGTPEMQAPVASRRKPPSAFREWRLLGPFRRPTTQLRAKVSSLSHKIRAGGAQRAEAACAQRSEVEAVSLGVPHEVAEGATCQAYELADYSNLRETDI
Multiple publications report Ki for UniProt:P25100; what follows is a combined list.
quantity_measured: Ki (nM)

Observe how each entry below is paired with its result.
Form field: Ki recorded for COc1ccc(Cl)cc1N1CCN(CCNc2cc(-c3ccccc3)nn(C)c2=O)CC1 with UniProt:P25100 (enter value) 1.07

And for COCC1=C(C(=O)OC)C(c2ccc(F)c(F)c2)N(C(=O)NCCCN2CCC(C#N)(c3cccc(F)c3)CC2)C(=O)N1 (stereo not drawn) ? 180

(1) CC(C)Oc1ccccc1N1CCN(CC(O)CC(=O)CN2CCCCC2=O)CC1 (stereo not drawn)
(2) COc1ccccc1N1CCN(CCn2c(=O)[nH]c3c(sc4ccc(NC(=O)CCCC(=O)NCc5ccccc5)cc43)c2=O)CC1
Which value of Ki is numerically greater: that of 1 or that of 2 ? Write down the label attached to your selection. 1
(1: 253 nM, 2: 0.141 nM)

(a) COc1ccccc1N1CCN(C[C@@H]2CO[C@](CN3CCCC3=O)(c3ccccc3)O2)CC1 (relative stereo)
(b) COC(=O)C1=C(C)NC(=O)N(C(=O)NCCCN2CCC(c3cc(C)cc(C)c3)(c3cc(C)cc(C)c3)CC2)C1c1ccc(F)c(F)c1 (stereo not drawn)
Of a and b , which one carries the higher reported Ki? Write down the label attached to your selection. b
(b: 750 nM, a: 5.25 nM)
